- System: A549
- ASSAY_COMMENT: Cytotoxicity against human A549 cells by MTT assay
- Type: functional, cell-based
Consider the following compounds; for each one, report its IC50.
Answer format: numeric, µg/mL implied, no suffix.

-- ask Report IC50 for CCCCCCCCCCCCCCCC(O)CC(O)CO (centres undefined) please.
-- reply 3

-- ask # get_value(readout='IC50', item= COc1cccc2c1C(=O)c1c(O)c3c(c(O)c1C2=O)C[C@@](O)(C(=O)CO)C[C@@H]3O[C@H]1C[C@H](N)[C@H](O)[C@H](C)O1 )
-- reply 0.0022

-- ask I would be grateful if you could share the reported IC50 for C#CCCCCCCCCCCCC(O)CC(O)CO (centres undefined) .
-- reply 4.8

-- ask # input compound: C=CCCCCCCCCCCCC(O)CC(O)CO (centres undefined) ; wanted: its IC50
-- reply 3.4

* * *

- System: MIA PaCa-2
- ASSAY_COMMENT: Cytotoxicity against human MIAPaCa2 cells by MTT assay
- Type: functional, cell-based
MEASURED_ATTRIBUTE: IC50 (µg/mL)
Number in µg/mL, nothing else.

-- ask # input compound: COc1cccc2c1C(=O)c1c(O)c3c(c(O)c1C2=O)C[C@@](O)(C(=O)CO)C[C@@H]3O[C@H]1C[C@H](N)[C@H](O)[C@H](C)O1 ; wanted: its IC50
-- reply 0.0024

-- ask Quick one: IC50 of C=CCCCCCCCCCCCC(O)CC(O)CO (centres undefined) ?
-- reply 5.3

* * *

Would you mind telling me the reported IC50 of each entry?
- System: MCF7
- ASSAY_COMMENT: Cytotoxicity against human MCF7 cells by MTT assay
- Format: functional, cell-based
Field: value (include unit after the number)

-- ask Kindly state the measured IC50 obtained for C=CCCCCCCCCCCCC(O)CC(O)CO (centres undefined) [AVOCADENE] with MCF7.
-- reply 4.4 µg/mL

-- ask Form field: IC50 recorded for C#CCCCCCCCCCCCC(O)CC(O)CO (centres undefined) [AVOCADYNE] with MCF7 (enter value)
-- reply 6.5 µg/mL

-- ask Which IC50 is reported with MCF7 for this entry: COc1cccc2c1C(=O)c1c(O)c3c(c(O)c1C2=O)C[C@@](O)(C(=O)CO)C[C@@H]3O[C@H]1C[C@H](N)[C@H](O)[C@H](C)O1 [DOXORUBICIN] ?
-- reply 0.081 µg/mL

-- ask Any idea what IC50 came out for CCCCCCCCCCCCCCCC(O)CC(O)CO (centres undefined) on MCF7?
-- reply 3.2 µg/mL

* * *

- ASSAY_COMMENT: Toxicity in Artemia salina
- Assay type: organism-based
- MEASUREMENT_SETUP: in vivo
Kindly state LC50 for each of the entries shown.
Please state the figure in µg/mL; there is no need to write the unit.

-- ask Quick check: LC50 of C=CCCCCCCCCCCCC(O)CC(O)CO (stereo not drawn) ?
-- reply 1.3

-- ask Data request, read-out LC50, for CCCCCCCCCCCCCCCC(O)CC(O)CO (stereo not drawn)
-- reply 2.8

-- ask Give its LC50 value. Item: C#CCCCCCCCCCCCC(O)CC(O)CO (stereo not drawn)
-- reply 0.64
